# System: 616215-338-R-J1-PDC complex spheroid viability;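 note: spheroids exposed to compounds for one week before readout; percent viability relative to DMSO vehicle wells taken as 100%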
# protocol details: Anticancer human tumor 616215-338-R-J1-PDC patient-derived colon adenocarcinoma cell line growth inhibition [POLQ]
# condition: second compound 3.16 µM; first compound 1 µM; hits give low values
Documented viability, T/C across a set of compounds
Enter your answer as a number in %; do not include the unit.

- CCc1c2c(nc3ccc(O)cc13)-c1cc3c(c(=O)n1C2)COC(=O)[C@]3(O)CC + Cc1cccc(N(C)C(=O)C2C(O)CCN2c2nc(C)cc(C(F)(F)F)c2C#N)c1: 22.1

Noted for COc1cc2cc(C(=O)CCC(=O)O)sc2cc1OC + COC1C(OC(N)=O)C(O)C(Oc2ccc3c(O)c(NC(=O)c4ccc(O)c(CC=C(C)C)c4)c(=O)oc3c2C)OC1(C)C : its viability, T/C reads 102

Noted for COc1cc2cc(C(=O)CCC(=O)O)sc2cc1OC + Cc1cccc(N(C)C(=O)C2C(O)CCN2c2nc(C)cc(C(F)(F)F)c2C#N)c1 : its viability, T/C reads 102

Noted for CCCS(=O)(=O)Nc1ccc(F)c(C(=O)c2c[nH]c3ncc(-c4ccc(Cl)cc4)cc23)c1F + Nc1ccc(C#CCN(C(=O)Cc2ncc(C(F)(F)F)cc2C(F)(F)F)c2ccc(F)cc2)nn1 : its viability, T/C reads 102

Noted for CNCc1ccc(-c2[nH]c3cc(F)cc4c3c2CCNC4=O)cc1 + COC1C(OC(N)=O)C(O)C(Oc2ccc3c(O)c(NC(=O)c4ccc(O)c(CC=C(C)C)c4)c(=O)oc3c2C)OC1(C)C : its viability, T/C reads 109

Noted for COc1cccc(OCCCN)c1-c1cc(Nc2cnc(C#N)cn2)n[nH]1 + COC1C(OC(N)=O)C(O)C(Oc2ccc3c(O)c(NC(=O)c4ccc(O)c(CC=C(C)C)c4)c(=O)oc3c2C)OC1(C)C : its viability, T/C reads 55.2
